# System: thyroid hormone receptor (rat, GH3 cells)
# method-notes: qHTS assay to identify small molecule agonists of the thyroid receptor (TR) signaling pathway (AID 743066)
# condition-notes: GH3.TRE-Luc cells, TR agonist luciferase, 24 h; series mostly up to 83.9 µM
Records with an inconclusive call do not appear. The source made the active and inactive calls. Calls come from the whole dose curve.
Possible outcomes: yes (1) = active, no (0) = inactive

INSERT INTO measurements (compound, system_under_test, category) VALUES
  ('CCOCC(O)COc1ccc(NC(=O)CC[S+](C)C)cc1 (configuration not stated)', 'thyroid hormone receptor (rat, GH3 cells)', 'no (0)'),
  ('COC(C)(C)CCO', 'thyroid hormone receptor (rat, GH3 cells)', 'no (0)'),
  ('O=CC1CC=CCC1 (configuration not stated)', 'thyroid hormone receptor (rat, GH3 cells)', 'no (0)'),
  ('Cc1c(N)cccc1[N+](=O)[O-]', 'thyroid hormone receptor (rat, GH3 cells)', 'no (0)'),
  ('CCC(C)c1cc(C(C)(C)C)c(O)c(C(C)(C)C)c1 (configuration not stated)', 'thyroid hormone receptor (rat, GH3 cells)', 'yes (1)'),
  ('O=[N+]([O-])c1ccc2[nH]ncc2c1', 'thyroid hormone receptor (rat, GH3 cells)', 'no (0)'),
  ('C[C@H]1C[C@H]2[C@@H]3CCC4=CC(=O)C=C[C@]4(C)[C@@]3(Cl)[C@@H](O)C[C@]2(C)[C@@]1(O)C(=O)CO', 'thyroid hormone receptor (rat, GH3 cells)', 'no (0)');

###

# method-notes: qHTS assay to test for compound auto fluorescence at 535 nm (green) in HEK293 cell free culture (AID 720682); note: % is set by controls: 0 for no effect and ±100 for the full control effect
# condition-notes: cell-free medium, green autofluorescence 485/535 nm, stronger effect = higher value; series mostly up to 91.3 µM
Activity calls are given as the source filed them. The call rests on the fitted dose curve; in most records, active means well fitted curve in the direction sought with a large enough effect in the repeat runs; inconclusive means weak or mixed curves; inactive means flat fitted curve, though single readings scatter.
measured-property: activity change

INSERT INTO results (line_notation, meas_value) VALUES
  ('COS(=O)(=O)C(F)(F)F', 'inactive'),
  ('Clc1ccc(Cn2c(CN3CCCC3)nc3ccccc32)cc1', '-0.0526% [at 18.6 µM] (inactive)'),
  ('CCCCC1=NC2(CCCC2)C(=O)N1Cc1ccc(-c2ccccc2-c2nn[nH]n2)cc1', 'inactive'),
  ('C/C=C/C(=O)CC', '0.0169% [at 18.6 µM] (inactive)'),
  ('CC(C)(O)c1ccc(CNC(=O)c2cccnc2Oc2ccc(F)cc2)cc1', 'inactive');

###

# system-under-test: Estrogen receptor (Homo sapiens) (UniProt P03372)
# Sequence (P03372 whole entry, looked up): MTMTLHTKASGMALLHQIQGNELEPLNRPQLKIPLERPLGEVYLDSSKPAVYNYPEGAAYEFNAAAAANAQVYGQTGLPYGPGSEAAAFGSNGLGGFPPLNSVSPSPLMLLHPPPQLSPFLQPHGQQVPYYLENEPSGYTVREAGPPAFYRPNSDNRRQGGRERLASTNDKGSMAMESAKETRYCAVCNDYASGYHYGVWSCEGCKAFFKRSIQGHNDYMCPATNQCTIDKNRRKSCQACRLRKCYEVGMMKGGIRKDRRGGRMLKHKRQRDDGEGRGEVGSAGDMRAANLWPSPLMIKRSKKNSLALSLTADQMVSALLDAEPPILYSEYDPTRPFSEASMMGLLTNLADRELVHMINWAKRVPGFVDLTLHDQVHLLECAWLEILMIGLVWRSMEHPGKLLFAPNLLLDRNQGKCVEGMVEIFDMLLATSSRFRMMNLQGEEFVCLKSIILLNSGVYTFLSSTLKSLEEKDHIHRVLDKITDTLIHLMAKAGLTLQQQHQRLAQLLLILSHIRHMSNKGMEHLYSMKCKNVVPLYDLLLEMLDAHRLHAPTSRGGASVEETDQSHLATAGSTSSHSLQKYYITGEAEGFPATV
# method-notes: qHTS assay to identify small molecule antagonists of the estrogen receptor alpha (ER-alpha) signaling pathway (AID 743069); note: potency is the fitted concentration of half-maximal effect
# condition-notes: HEK293 ER-alpha-UAS-bla, beta-lactamase ratio, antagonist mode; series mostly up to 69.4 µM
The source made the active and inactive calls. Calls come from the whole dose curve; as a rule, active = well fitted curve in the direction sought with a large enough effect in the signal ratio in the repeat runs (not every such curve was filed as active); inconclusive = weak or mixed curves, or effect the other way; inactive = no such curve, though single readings can be large or run the other way; the % refers to the signal ratio.
measured-property: Potency

INSERT INTO measurements (compound, system_under_test, measured_property, meas_value) VALUES
  ('N=c1ccn2c(n1)O[C@H]1[C@H](O)[C@@H](CO)O[C@H]12', 'Estrogen receptor (Homo sapiens) (UniProt P03372)', 'Potency', 'inactive'),
  ('O=C(CS)Nc1ccccc1', 'Estrogen receptor (Homo sapiens) (UniProt P03372)', 'Potency', '15.1 µM [inconclusive] (active)'),
  ('CCC(CC)Nc1ccc(C)c(C)c1', 'Estrogen receptor (Homo sapiens) (UniProt P03372)', 'Potency', 'inactive'),
  ('CCOC(=O)c1cccnc1', 'Estrogen receptor (Homo sapiens) (UniProt P03372)', 'Potency', 'inactive'),
  ('C[C@@H]1C[C@H]2O[C@@]3(O[C@@H]2C(C)(C)O)[C@H](O)[C@@]2(C)[C@@H]4CC[C@H]5C(C)(C)[C@@H](O[C@@H]6OC[C@@H](O)[C@H](O)[C@H]6O)CC[C@@]56C[C@@]46CC[C@]2(C)[C@@H]13', 'Estrogen receptor (Homo sapiens) (UniProt P03372)', 'Potency', 'inactive'),
  ('CN(C)c1ccc(CCO)cc1', 'Estrogen receptor (Homo sapiens) (UniProt P03372)', 'Potency', 'inactive'),
  ('OCCNCc1ccccc1', 'Estrogen receptor (Homo sapiens) (UniProt P03372)', 'Potency', 'inactive'),
  ('CCO[C@H](Cc1ccc(OCCc2ccc(OS(C)(=O)=O)cc2)cc1)C(=O)O', 'Estrogen receptor (Homo sapiens) (UniProt P03372)', 'Potency', 'inactive'),
  ('CCc1c(C(=O)NN2CCCCC2)nn(-c2ccc(Cl)cc2Cl)c1-c1ccc(Br)cc1', 'Estrogen receptor (Homo sapiens) (UniProt P03372)', 'Potency', '13.8 µM [inconclusive] (active)'),
  ('CCN(CC)CCNC(=O)c1cc(Br)c(N)cc1OC', 'Estrogen receptor (Homo sapiens) (UniProt P03372)', 'Potency', 'inactive'),
  ('COc1ccc(S(=O)(=O)N2C(=O)[C@@](c3ccccc3OC)(N3C[C@H](O)C[C@H]3C(=O)N(C)C)c3cc(Cl)ccc32)c(OC)c1', 'Estrogen receptor (Homo sapiens) (UniProt P03372)', 'Potency', '43.6 µM [inconclusive] (active)'),
  ('O=CC1CC=CCC1 (stereo not given)', 'Estrogen receptor (Homo sapiens) (UniProt P03372)', 'Potency', 'inactive'),
  ('Cn1c(=O)cc(Oc2ccc(F)cc2F)c2cnc(NCC(C)(C)O)nc21', 'Estrogen receptor (Homo sapiens) (UniProt P03372)', 'Potency', 'inactive'),
  ('C=C(C)C(=O)OCCO', 'Estrogen receptor (Homo sapiens) (UniProt P03372)', 'Potency', 'inactive'),
  ('O=C(OCCCCCCOC(=O)c1ccccc1)c1ccccc1', 'Estrogen receptor (Homo sapiens) (UniProt P03372)', 'Potency', 'inactive');

###

# method-notes: qHTS assay to identify small molecule agonists of the estrogen receptor beta (ER-beta) signaling pathway - cell viability counter screen (AID 1259380); note: % is set by controls: 0 for no effect and ±100 for the full control effect; nearly all actives have a fitted effect of over 30% in size
# condition-notes: ER-beta-bla HEK293T viability, CellTiter-Glo luminescence, 16 h; series mostly up to 92.4 µM
Results filed as inconclusive are left out. Active and inactive are the calls of the source. Calls come from the whole dose curve; as a rule, active = well fitted cell-killing curve with a large enough effect in the repeat runs; inconclusive = weak or mixed curves, or effect the other way; inactive = flat fitted curve, though single readings scatter.
measured-property: outcome

INSERT INTO assay_data (compound, meas_value) VALUES
  ('CCOC(=O)COC(=O)c1cc(Oc2ccc(C(F)(F)F)cc2Cl)ccc1[N+](=O)[O-]', 'inactive'),
  ('C/C=C/C=C/CO', 'inactive'),
  ('CC[N+]1(CC)CCC(=C(c2ccccc2)c2ccccc2)C1C (stereo not drawn)', 'inactive');

###

# system-under-test: Cytochrome P450 2C19 (Homo sapiens) (UniProt P33261)
# Sequence (P33261 whole entry, looked up): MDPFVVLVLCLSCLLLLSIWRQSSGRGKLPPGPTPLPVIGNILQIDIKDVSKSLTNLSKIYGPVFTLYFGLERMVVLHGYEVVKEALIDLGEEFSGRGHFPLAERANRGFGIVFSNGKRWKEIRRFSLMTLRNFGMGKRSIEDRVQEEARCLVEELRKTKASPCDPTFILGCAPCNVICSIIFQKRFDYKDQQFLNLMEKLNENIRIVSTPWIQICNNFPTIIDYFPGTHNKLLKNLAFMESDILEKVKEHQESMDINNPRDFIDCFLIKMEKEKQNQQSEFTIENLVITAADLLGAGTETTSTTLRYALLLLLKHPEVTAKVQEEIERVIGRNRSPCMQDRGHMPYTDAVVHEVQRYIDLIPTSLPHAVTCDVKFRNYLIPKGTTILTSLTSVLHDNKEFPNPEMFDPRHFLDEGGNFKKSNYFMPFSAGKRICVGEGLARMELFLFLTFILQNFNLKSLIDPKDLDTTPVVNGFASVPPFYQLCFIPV
# method-notes: Cytochrome P450 Family 2 Subfamily C Member 19 (CYP2C19) small molecule antagonists: luciferase reporter qHTS assay (AID 1671197); note: nearly all actives have a fitted effect of over 65% in size
# condition-notes: P450-Glo CYP2C19 enzyme, luciferin luminescence, 1 h; series mostly up to 52.9 µM
Results filed as inconclusive are left out. The source made the active and inactive calls. Calls come from the whole dose curve; as a rule, active = well fitted inhibition curve with a large enough effect in the repeat runs; inconclusive = weak or mixed curves; inactive = no such curve, though single readings can be large or run the other way.
Possible outcomes: true (1) = active, false (0) = inactive

INSERT INTO measurements (molecule, system_under_test, category) VALUES
  ('CN1Cc2cc(C(=O)N3CCC(C4CCNCC4)CC3)ccc2NC(CC(=O)O)C1=O (stereo unspecified)', 'Cytochrome P450 2C19 (Homo sapiens) (UniProt P33261)', 'false (0)'),
  ('C[C@@H]1C[C@H]2[C@@H]3CCC4=CC(=O)C=C[C@]4(C)[C@@]3(F)[C@@H](O)C[C@]2(C)[C@@]1(O)C(=O)COC(=O)c1ccncc1', 'Cytochrome P450 2C19 (Homo sapiens) (UniProt P33261)', 'true (1)'),
  ('c1ccc(CNCCNCc2ccccc2)cc1', 'Cytochrome P450 2C19 (Homo sapiens) (UniProt P33261)', 'true (1)'),
  ('CC[N+]1(CC)CCC(=C(c2ccccc2)c2ccccc2)C1C (stereo unspecified)', 'Cytochrome P450 2C19 (Homo sapiens) (UniProt P33261)', 'false (0)'),
  ('OC[C@H]1O[C@@H](OCCc2ccc(O)cc2)[C@H](O)[C@@H](O)[C@@H]1O', 'Cytochrome P450 2C19 (Homo sapiens) (UniProt P33261)', 'false (0)'),
  ('CCn1cc(C(=O)O)c(=O)c2cnc(N3CCNCC3)nc21', 'Cytochrome P450 2C19 (Homo sapiens) (UniProt P33261)', 'false (0)');

###

# method-notes: A CellTox Green Cytotoxicity Assay to monitor cytotoxicity in HEK293 cells - 8 hour (AID 1224884); note: nearly all actives have a fitted effect of over 35% in size
# condition-notes: CellTox Green fluorescence; series mostly up to 76.8 µM
Records with an inconclusive call do not appear. The source made the active and inactive calls. Calls come from the whole dose curve; as a rule, active = well fitted activation curve with a large enough effect in the repeat runs; inconclusive = weak or mixed curves; inactive = flat fitted curve, though single readings scatter.
Possible outcomes: true for active, false for inactive

INSERT INTO assay_data (molecule, category) VALUES
  ('Cc1ccc(C(C)OC(=O)C2(C)CCC(C(=O)O)C2(C)C)cc1 (stereo unspecified)', 'false'),
  ('CCCCOC(=O)CCCCCCCC(=O)OCCCC', 'false'),
  ('O=C(Nc1ccc(S(=O)(=O)N2CCOCC2)cc1)c1cc(Cl)ccc1NS(=O)(=O)c1ccc(Cl)s1', 'true'),
  ('COc1ccc2cccc(CCNC(C)=O)c2c1', 'false'),
  ('CC1OC(=O)C(C)OC1=O (stereo unspecified)', 'false'),
  ('O=C(c1ccc(F)cc1)C1CCN(CCn2c(=S)[nH]c3ccccc3c2=O)CC1', 'false');
